// KRas^WT (Homo sapiens) IC50 records
Write the number in nM without appending the unit.

For orientation, consider the following solved cases.
INSERT INTO measurements (molecule, readout, unit_descriptor, observed_value) VALUES
  ('CCc1cccc2cccc(N3CCc4c(nc(OCC56CCCN5CCC6)nc4N4CCOCC(O)C4)C3)c12 (centres unmarked) [Example 6]', 'IC50', 'nM', 104),
  ('CCc1c(F)ccc2cc(O)cc(N3CCc4c(nc(OC[C@@]56CCCN5C[C@H](F)C6)nc4N4CCCC(c5ncn[nH]5)C4)C3)c12 (some centres unmarked) [Example 19]', 'IC50', 'nM', 8),
  ('CCc1cccc2cccc(N3CCc4c(nc(OCC56CCCN5CCC6)nc4N4CCCC(c5nc(N)n(C)n5)C4)C3)c12 (centres unmarked) [Example 84]', 'IC50', 'nM', 838);

Please tell me the measured IC50 for CCc1cccc2cccc(N3CCc4c(nc(OCC56CCCN5CCC6)nc4N4CCCC(n5ccc(C)n5)C4)C3)c12 (centres unmarked) [Example 94] ; system: KRas^WT (Homo sapiens).
Sequence (P01116 1-169 isoform P01116-2): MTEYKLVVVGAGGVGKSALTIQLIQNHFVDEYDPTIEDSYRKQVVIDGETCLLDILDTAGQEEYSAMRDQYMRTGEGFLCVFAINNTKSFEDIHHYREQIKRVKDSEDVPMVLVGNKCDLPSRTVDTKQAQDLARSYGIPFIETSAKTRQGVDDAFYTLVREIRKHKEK
860

Please tell me the measured IC50 for CCc1cccc2cccc(N3CCc4c(nc(OCC56CCCN5CCC6)nc4N4CCCCC(C)C4)C3)c12 (centres unmarked) [Example 119] ; system: KRas^WT (Homo sapiens).
967

Please tell me the measured IC50 for CCc1cccc2cccc(N3CCc4c(nc(OCC56CCCN5CCC6)nc4N4CCCc5ncccc5C4)C3)c12 [Example 55] ; system: KRas^WT (Homo sapiens).
2900

Please tell me the measured IC50 for CCc1cccc2cccc(N3CCc4c(nc(OCC56CCCN5CCC6)nc4N4CCOCC(n5cncn5)C4)C3)c12 (centres unmarked) [Example 88] ; system: KRas^WT (Homo sapiens).
215

Please tell me the measured IC50 for CCc1cccc2cccc(N3CCc4c(nc(OCC56CCCN5CCC6)nc4N4CC(C)CC(C(N)=O)C4)C3)c12 (centres unmarked) [Example 105] ; system: KRas^WT (Homo sapiens).
469
